Test system: Caov-3 (Ovarian Carcinoma)
Assay: combination Emax (second highest fraction inhibited in the dose matrix, 72 h); higher = more inhibition; extreme values may be limits of the assay
observation type: combination Emax
Answer as a number with no unit attached.

{"molecule": "COc1cccc(OCCCN)c1-c1cc(Nc2cnc(C#N)cn2)n[nH]1 [Prexasertib] + Cc1cc2ncnn2cc1Nc1ncc2c(n1)n(C1CCOCC1)c(=O)n2C [AZD7648] (first compound max 1 µM, 7x7, partner max 10 µM)", "combination Emax": 0.797}

// field: combination Emax; key: CN(C)CCCOc1ccc(-c2ccc3ncc4c(c3c2)n(C2CCOCC2)c(=O)n4C)cn1 [AZD0156] + C[C@@H]1COCCN1C2=NC(=NC(=C2)C3(CC3)[S@](=N)(=O)C)C4=C5C=CNC5=NC=C4 [AZD6738] (first compound max 1 µM, 7x7, partner max 10 µM) ; value = 0.663

// field: combination Emax; key: CC1(C)CCC(CN2CCN(c3ccc(C(=O)NS(=O)(=O)c4ccc(NCC5CCOCC5)c([N+](=O)[O-])c4)c(Oc4cnc5[nH]ccc5c4)c3)CC2)=C(c2ccc(Cl)cc2)C1 [Venetoclax] + Cc1cc2ncnn2cc1Nc1ncc2c(n1)n(C1CCOCC1)c(=O)n2C [AZD7648] (first compound max 1 µM, 7x7, partner max 10 µM) ; value = 0.528

// field: combination Emax; key: COc1cccc(OCCCN)c1-c1cc(Nc2cnc(C#N)cn2)n[nH]1 [Prexasertib] + C=CCn1c(=O)c2cnc(Nc3ccc(N4CCN(C)CC4)cc3)nc2n1-c1cccc(C(C)(C)O)n1 [AZD1775] (first compound max 1 µM, partner max 1 µM) ; value = 0.798

// field: combination Emax; key: CC1(C)CCC(CN2CCN(c3ccc(C(=O)NS(=O)(=O)c4ccc(NCC5CCOCC5)c([N+](=O)[O-])c4)c(Oc4cnc5[nH]ccc5c4)c3)CC2)=C(c2ccc(Cl)cc2)C1 [Venetoclax] + CN(C)CCCOc1ccc(-c2ccc3ncc4c(c3c2)n(C2CCOCC2)c(=O)n4C)cn1 [AZD0156] (first compound max 1 µM, 7x7, partner max 1 µM) ; value = 0.59

// field: combination Emax; key: Cc1c2c(nn1C)CSCc1cc(n(C)n1)CSc1cc(c3ccccc3c1)OCCCc1c(C(=O)O)n(C)c3c-2c(Cl)ccc13 [AZD5991] + Cn1cnc2c(F)c(Nc3ccc(Br)cc3Cl)c(C(=O)NOCCO)cc21 [Selumetinib] (first compound max 1 µM, 7x7, partner max 3 µM) ; value = 0.501

// field: combination Emax; key: CC1(C)CCC(CN2CCN(c3ccc(C(=O)NS(=O)(=O)c4ccc(NCC5CCOCC5)c([N+](=O)[O-])c4)c(Oc4cnc5[nH]ccc5c4)c3)CC2)=C(c2ccc(Cl)cc2)C1 [Venetoclax] + C=CCn1c(=O)c2cnc(Nc3ccc(N4CCN(C)CC4)cc3)nc2n1-c1cccc(C(C)(C)O)n1 [AZD1775] (first compound max 1 µM, partner max 1 µM) ; value = 0.801

###

Tested on: KYM-1 (Rhabdomyosarcoma);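 also: after 72 h of two-drug dosing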
Experiment: Bliss excess, mean over the matrix (fraction); higher = more synergy
Record Condition met whenever Bliss excess is at 0.05 or higher; record Condition not met when lower.

{"compound": "COc1nnc2ccc(N3CCC(c4ccc(OCCN5CCN(C)C(=O)[C@H]5C)cc4)CC3)nn12 [AZD5153] + C[C@@H]1COCCN1C2=NC(=NC(=C2)C3(CC3)[S@](=N)(=O)C)C4=C5C=CNC5=NC=C4 [AZD6738] (first compound max 1 µM, 7x7, partner max 10 µM)", "class assignment": "Condition not met"}
{"compound": "NC1(C(=O)N[C@@H](CCO)c2ccc(Cl)cc2)CCN(c2ncnc3[nH]ccc23)CC1 [Capivasertib] + CCN(CCO)CCCOc1ccc2c(Nc3cc(CC(=O)Nc4cccc(F)c4)[nH]n3)ncnc2c1 [AZD2811] (first compound max 10 µM, 7x7, partner max 1 µM)", "class assignment": "Condition not met"}
{"compound": "COc1cccc(OCCCN)c1-c1cc(Nc2cnc(C#N)cn2)n[nH]1 [Prexasertib] + C[C@@H]1COCCN1C2=NC(=NC(=C2)C3(CC3)[S@](=N)(=O)C)C4=C5C=CNC5=NC=C4 [AZD6738] (first compound max 1 µM, 7x7, partner max 10 µM)", "class assignment": "Condition not met"}

Asked: # bool: Bliss excess of CCc1c2c(nc3ccc(O)cc13)-c1cc3c(c(=O)n1C2)COC(=O)[C@]3(O)CC [SN-38] + CN(C)CCCOc1ccc(-c2ccc3ncc4c(c3c2)n(C2CCOCC2)c(=O)n4C)cn1 [AZD0156] (first compound max 0.3 µM, 7x7, partner max 1 µM) >= 0.05
Given back: Condition not met
